Just for reference, patent EP0591583B1 is where these values come from.

# Lookup of reported inhibition at 1 µM keyed by entry
- target.desc: 5α-reductase (Homo sapiens, UniProt P18405)
- Construct: host or cells: Hs68 human genital skin fibroblasts
- Sequence (P18405 whole entry): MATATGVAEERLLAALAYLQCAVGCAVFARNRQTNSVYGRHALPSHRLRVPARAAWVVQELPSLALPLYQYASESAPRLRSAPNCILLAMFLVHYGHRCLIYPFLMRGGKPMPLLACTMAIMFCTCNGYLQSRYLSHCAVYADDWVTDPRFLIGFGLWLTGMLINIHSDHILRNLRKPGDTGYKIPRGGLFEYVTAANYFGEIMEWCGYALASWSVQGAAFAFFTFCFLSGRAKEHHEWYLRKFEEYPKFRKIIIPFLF
- method.description: 5α-Reductase activity in Hs68 human genital skin fibroblasts (conversion of labeled testosterone, TLC analysis)
- Type: cell-based
- measurement.context: Hs68, test compound 1.00 µM; Hs68 cells; substrate testosterone 12 µM; incubated four hours
property: inhibition at 1 µM (%)

>>> print(df.to_string())
                                   compound                               target_desc            property  data_value
0  CN1C(=O)CCC2(C)c3ccc(Cl)cc3CCC12 (racemic) [Example 34]  5α-reductase (Homo sapiens, UniProt P18405)  inhibition at 1 µM        94.2
1  CN1C(=O)CC[C@@H]2c3ccc(Br)cc3CC[C@@H]21 (racemic) [Example 1B]  5α-reductase (Homo sapiens, UniProt P18405)  inhibition at 1 µM        92.7
2  CN1C(=O)CC[C@@H]2c3ccc(Br)cc3CC[C@H]21 (racemic) [Example 1A]  5α-reductase (Homo sapiens, UniProt P18405)  inhibition at 1 µM          98
3  CN1C(=O)CC[C@@H]2c3ccc(Cl)cc3CC[C@@H]21 (racemic) [Example 7]  5α-reductase (Homo sapiens, UniProt P18405)  inhibition at 1 µM         100
